ASSAY_OVERVIEW: chemical genetic growth profiling, strain panel (AID 1159580);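 further: tested at 20 µM; growth read once vehicle control cultures reached saturation at 30 °C; lower values mean less growth of the strain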
TEST_CONTEXT: S. cerevisiae deletion strains, growth OD, locus YNR052C, strain pop2
The campaign covered roughly 5,500 compounds. About 2,000 (36%) were called active. About 18% were inconclusive and are not listed. No stated cut-off is given here; in the data, active means normalized growth mostly below about 0.91 (no sharp cut-off); inconclusive means no clear call, values can overlap the other calls; inactive means mostly above about 0.92. The list shows a part of the results.
Labels: active, inactive

INSERT INTO assay_data (molecule, qualitative_label) VALUES
  ('COC(=O)C[C@H]1C(C)(C)[C@H](O)[C@@H]2CC3=C4CC(O)O[C@@H](c5ccoc5)[C@]4(C)CCC3[C@@]1(C)C2=O (some centres undefined)', 'inactive'),
  ('CC(=O)O[C@@H]1C2CC[C@@H]3C1(C[C@@H](O)[C@@]1(O)[C@@H](C[C@H](O)C1(C)C)[C@]3(C)O)C[C@@]2(C)O (some centres undefined)', 'inactive'),
  ('O=C(c1ccccc1)c1ccc2n1CCC2C(=O)O (centres undefined)', 'inactive'),
  ('CC(C)Cn1c(=O)n(C)c(=O)c2[nH]cnc21', 'inactive'),
  ('O=C(CCc1ccc(O)cc1)c1c(O)cc(O)cc1O', 'inactive'),
  ('COC1=CC23CCCN2CCc2cc4c(cc2C3C1O)OCO4 (centres undefined)', 'inactive'),
  ('Cn1c(=O)c2c(ncn2CCCl)n(C)c1=O', 'inactive'),
  ('COc1ccccc1OCC(O)COC(N)=O (centres undefined)', 'inactive'),
  ('COc1cc(O)ccc1C(C)=O', 'inactive'),
  ('Cn1c(=O)[nH]c2nc[nH]c2c1=O', 'inactive'),
  ('C[C@]12CC[C@@H](O)C[C@H]1CCc1ccccc12', 'inactive'),
  ('CCCc1ncc(C[n+]2ccccc2C)c(N)n1', 'inactive'),
  ('O=C1c2ccccc2C(=O)c2ccccc21', 'inactive'),
  ('O=C1NS(=O)(=O)c2ccccc21', 'inactive'),
  ('COC(=O)C[C@H]1C(C)(C)[C@@H](OC(C)=O)[C@@H]2CC3=C4CC(=O)O[C@@H](c5ccoc5)[C@]4(C)CCC3[C@@]1(C)C2=O (some centres undefined)', 'inactive'),
  ('O=C1C=CC(=O)c2c(O)cccc21', 'inactive'),
  ('CCCC(=O)Nc1ccc(OCC(O)CNC(C)C)c(C(C)=O)c1 (centres undefined)', 'inactive'),
  ('CN(C)CCC[C@@]1(c2ccc(F)cc2)OCc2cc(C#N)ccc21', 'inactive'),
  ('O=c1c(O)cccc2cc(O)c(O)c(O)c12', 'active'),
  ('CC(C)=CCC/C(C)=C/CO', 'inactive'),
  ('Cn1c(=O)[nH]c2ncn(C)c2c1=O', 'inactive'),
  ('COC(=O)c1cc(OC)c(=O)c2c(OC)c(OC)ccc2c1', 'inactive'),
  ('C[C@H]1C(=O)CCC2[C@]3(C)CC[C@@]4(C)C5CC(C)(C)CC[C@]5(C)CC[C@]4(C)C3CC[C@@]21C (some centres undefined)', 'active'),
  ('O=C(Nc1ccc([N+](=O)[O-])cc1Cl)c1cc(Cl)ccc1O', 'active'),
  ('O=C(N[C@@H](CO)[C@H](O)c1ccc([N+](=O)[O-])cc1)C(Cl)Cl', 'inactive'),
  ('ClC1C(Cl)C(Cl)C(Cl)C(Cl)C1Cl (centres undefined)', 'inactive'),
  ('Cc1cc(O)c2c(c1)C(=O)c1cccc(O)c1C2=O', 'inactive'),
  ('Cn1cnc2c1c(=O)[nH]c(=O)n2C', 'inactive'),
  ('O=C(O)CCC(=O)OC[C@@H](NC(=O)C(Cl)Cl)[C@H](O)c1ccc([N+](=O)[O-])cc1', 'inactive'),
  ('CC(C)[C@@H]1CC[C@@H](C)C[C@H]1OC(=O)c1ccccc1', 'inactive'),
  ('O=C(O)c1cc(O)c2c(c1)C(=O)c1cc(O)cc(O)c1C2=O', 'inactive'),
  ('CC(=O)CCCCn1c(=O)c2c(ncn2C)n(C)c1=O', 'inactive'),
  ('CC(C)N1C(=O)c2ccccc2NS1(=O)=O', 'inactive'),
  ('CC(NC(C)(C)C)C(=O)c1cccc(Cl)c1 (centres undefined)', 'inactive'),
  ('O=C1C=C(O)c2ccccc2C1=O', 'inactive'),
  ('CNC(C)(C)Cc1ccccc1', 'inactive'),
  ('CC(=O)OC[C@@]1(O)C[C@@]23CCC4c5ccoc5CC[C@]4(C)C2CC[C@@H]1C3 (some centres undefined)', 'inactive'),
  ('CC(=O)OCC1=C(C(=O)O)N2C(=O)[C@@H](NC(=O)CSc3ccncc3)[C@H]2SC1', 'inactive'),
  ('CC(C)c1cc2c(c(O)c1O)[C@@]1(C(=O)O)CCCC(C)(C)C1CC2 (some centres undefined)', 'inactive'),
  ('CC[C@H]1OC(=O)[C@H](C)[C@@H](O[C@H]2C[C@@](C)(OC)[C@@H](O)[C@H](C)O2)[C@H](C)[C@@H](O[C@@H]2O[C@H](C)C[C@H](N(C)C)[C@H]2O)[C@](C)(O)C[C@@H](C)/C(=N/OCOCCOC)[C@H](C)[C@@H](O)[C@]1(C)O', 'inactive'),
  ('C[C@]12[C@H](O)CC3C(CC[C@@H]4C[C@@H](O)CC[C@]34C)[C@@]1(O)CC[C@@H]2C1=CC(=O)OC1 (some centres undefined)', 'inactive'),
  ('CCCCN(CC)c1c([N+](=O)[O-])cc(C(F)(F)F)cc1[N+](=O)[O-]', 'inactive'),
  ('CNC(=O)Oc1cccc2c1OC(C)(C)C2', 'inactive'),
  ('COC(=O)C(O)[C@H]1C(C)(C)[C@@H](OC(C)=O)[C@@H]2CC3=C4CC(=O)O[C@@H](c5ccoc5)[C@]4(C)CCC3[C@@]1(C)C2=O (some centres undefined)', 'inactive');
